// values below are reported protein stability index
B1: HESX1 (parent)
chain: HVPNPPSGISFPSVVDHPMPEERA

Variants of: B1
Assay procedure: protein stability index of a GFP-peptide fusion (GPS, HEK-293T) (PSI 1-6); higher = more stable;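 also: lentivirally expressed fusions sorted by FACS into six bins by GFP to DsRed ratio, PSI derived from sequencing read proportions per bin multiplied by bin number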
Measurement conditions: c terminus: a fixed tail appended
Give the value as a plain number.

1. E22T: 2.33
2. I9Y: 2.43
3. H1S: 5.2
4. S13A: 2.55
5. A24M: 2.77
6. G8E: 3.01
7. P12I: 2.43
8. R23F: 2.11
9. E21G: 2.08
10. P3G: 4.01

Next variant, protein stability index to be filled in.
# input variant: M19E ; wanted: its protein stability index 3.69

Origin of values: the supplement of paper PMC10567573
